The values you see were collected from patent US20170081338A1.

# Assay Details: Compound stability in rat liver microsomes
# Type: in vitro ADME
# Measurement Context: pH 7.4; rat liver microsomes; in vivo CLint extrapolated
Task for the reader: assign each of the following molecules its reported CLint scaled at 5 μM.
Just the number in mL/min/kg, nothing appended.

# CLint scaled at 5 μM of Cn1cc(Nc2ncc(Cl)c(N[C@@H]3COC4C3OC[C@@H]4NS(=O)(=O)C3CCCC3)n2)cn1 (stereo partly drawn) = 52.1

Short answer for O=S(=O)(CC1CC1)N[C@H]1COC2C1OC[C@H]2Nc1nc(Nc2cnn(C3CCNCC3)c2)ncc1Cl (stereo partly drawn) : CLint scaled at 5 μM was 5.6

// sample Cn1cc(Nc2ncc(Cl)c(N[C@H]3COC4C3OC[C@H]4NS(=O)(=O)CC(F)(F)F)n2)cn1 (stereo partly drawn) , its CLint scaled at 5 μM was 30

The reported value for CC(C)=CS(=O)(=O)N[C@H]1COC2C1OC[C@H]2Nc1nc(Nc2cnn(C)c2)ncc1Cl (stereo partly drawn) in terms of CLint scaled at 5 μM is 96.5

Notebook: Cn1cc(Nc2ncc(Cl)c(N[C@@H]3COC4C3OC[C@@H]4NS(=O)(=O)CC(C)(C)C#N)n2)cn1 (stereo partly drawn) , CLint scaled at 5 μM read as 60.7

Query CC(C)CS(=O)(=O)N[C@@H]1COC2C1OC[C@@H]2Nc1nc(Nc2cnn(C)c2)ncc1Cl (stereo partly drawn) yields CLint scaled at 5 μM of 60
